Data provenance is ChEMBL document CHEMBL1135550.

The entries below are paired with their reported selectivity ratio.
test: Therapeutic ratio comparing nephrotoxic potential versus bone antiresorptive potency ( reciprocal of ED50 (TPTX assay) / the total urinary malate dehydrogenase excretion); type: ADME; conditions: urine; read-out: Therapeutic ratio
Give a plain numeric answer without units written out.

input: # return recorded selectivity ratio for entry NCCCC(O)(P(=O)(O)O)P(=O)(O)O [ALENDRONIC ACID]
output: 6.6

input: # return recorded selectivity ratio for entry NCCC(O)(P(=O)(O)O)P(=O)(O)O [PAMIDRONIC ACID]
output: 1.2

----------
tested on: Rattus norvegicus; assay: Effective dose after subcutaneous administration to TPTX rats for 50% reduction of hypercalcemia; assay type: functional; details: sc
The entries below are paired with their reported ED50.
Give the value in µg/kg but do not write µg/kg after it.

Below: 3 molecules and their reported ED50.
COc1ccc(OCCCN(C)CCC(O)(P(=O)(O)O)P(=O)(O)O)cc1    1.2
CN(CCCSc1ccc(Cl)cc1)CCC(O)(P(=O)(O)O)P(=O)(O)O    7.8
O=P(O)(O)C(O)(CCN1CCCCC1)P(=O)(O)O    5.6

Now turn to the next molecule.
input: # return recorded ED50 for entry CN(CCCOc1ccc(Cl)cc1)CCC(O)(P(=O)(O)O)P(=O)(O)O
output: 1.3

----------
The entries below are paired with their reported ED50.
system: Rattus norvegicus; test: Effective dose after subcutaneous administration to TPTX rats for 50% reduction of hypercalcemia; type: functional; conditions: sc
Give the value in mg/kg but do not write mg/kg after it.

Below: 5 compounds and their reported ED50.
CCCCc1cnc(NC(P(=O)(O)O)P(=O)(O)O)s1    0.0009
CC(N)CC(O)(P(=O)(O)O)P(=O)(O)O (stereo not drawn)    0.0034
O=P(O)(O)C(O)(CCNCCc1ccccc1)P(=O)(O)O    0.3
NCC(O)(P(=O)(O)O)P(=O)(O)O    0.15
O=P(O)(O)C(O)(CCCCCN1CCCC1)P(=O)(O)O    0.25

Now turn to the next compound.
input: # return recorded ED50 for entry CN(CCCCCCc1ccccc1)CCC(O)(P(=O)(O)O)P(=O)(O)O
output: 1.5

----------
test system: Rattus norvegicus; test: Effective dose after subcutaneous administration to TPTX rats for 50% reduction of hypercalcemia; format: functional; conditions: sc
ED50 class ranges: Low = under 0.005 mg/kg, Mid = from 0.005 mg/kg up to 0.02 mg/kg, High = 0.02 mg/kg and over

CC(=O)NCCC(O)(P(=O)(O)O)P(=O)(O)O    High

input: Hi there! Could you help me figure out the category for O=P(O)(O)C(O)(CCn1ccnc1)P(=O)(O)O please?
output: High

input: Hi there! Could you help me figure out the category for CN(C)CCC(P(=O)(O)O)P(=O)(O)O please?
output: High

input: Hi there! Could you help me figure out the category for CN(C)CCC(O)(P(=O)(O)O)P(=O)(O)O please?
output: Mid

input: Hi there! Could you help me figure out the category for O=P(O)(O)C(O)(CCNCCSc1ccccc1)P(=O)(O)O please?
output: High

input: Hi there! Could you help me figure out the category for CCCCCN(C)CCC(O)(P(=O)(O)O)P(=O)(O)O please?
output: Low

input: Hi there! Could you help me figure out the category for O=P(O)(O)C(N1CCCC1)P(=O)(O)O please?
output: High

input: Hi there! Could you help me figure out the category for CCc1cnc(NC(P(=O)(O)O)P(=O)(O)O)s1 please?
output: Low

input: Hi there! Could you help me figure out the category for O=P(O)(O)C(O)(C1CCCNC1)P(=O)(O)O (centres undefined) please?
output: High

input: Hi there! Could you help me figure out the category for O=P(O)(O)C(O)(CCN1CCCC1)P(=O)(O)O please?
output: Mid
